Record form. Attribute: IC50. Fill in for each entry.
# test.target: FAAH (Mus musculus)
# Construct: Proteomes (mouse brain membrane fraction or cell lysates); from tissue; host or cells: mouse brain membrane fraction (or unspecified cell lysates)
# protocol.notes: In vitro competitive activity-based protein profiling (mouse), FAAH
# Type: biochemical
# condition.set: mouse brain membrane fraction or cell lysates, 30 min preincubation at 37° C, FP-Rh probe

O=C(OC(C(F)(F)F)C(F)(F)F)N1CCN(Cc2cc(N3CCC(CO)C3)cc(C(F)(F)F)c2)CC1 (stereo not shown)
> 1000 nM

Okay, here is my list. What is IC50 for each of these?
1. O=C(OC(C(F)(F)F)C(F)(F)F)N1CCN(Cc2cccc(Cl)c2N2CC[C@H](CF)C2)CC1
2. O=C(O)C1CCN(c2cc(C(F)(F)F)ccc2CN2CCN(C(=O)OC(C(F)(F)F)C(F)(F)F)CC2)CC1

result:
["> 1000 nM", "> 1000 nM"]

query: Item O=C(OC(C(F)(F)F)C(F)(F)F)N1CCN(Cc2ccc(C(F)(F)F)c(N3CCC(CO)C3)c2)CC1 (stereo not shown) has what recorded IC50?
result: > 1000 nM

---

Record form. Attribute: IC50. Fill in for each entry.
# test.target: MAGL (Mus musculus, UniProt O35678)
# Construct: Proteomes (mouse brain membrane fraction or cell lysates); from tissue; host or cells: mouse brain membrane fraction (or unspecified cell lysates)
# Sequence (O35678 whole entry): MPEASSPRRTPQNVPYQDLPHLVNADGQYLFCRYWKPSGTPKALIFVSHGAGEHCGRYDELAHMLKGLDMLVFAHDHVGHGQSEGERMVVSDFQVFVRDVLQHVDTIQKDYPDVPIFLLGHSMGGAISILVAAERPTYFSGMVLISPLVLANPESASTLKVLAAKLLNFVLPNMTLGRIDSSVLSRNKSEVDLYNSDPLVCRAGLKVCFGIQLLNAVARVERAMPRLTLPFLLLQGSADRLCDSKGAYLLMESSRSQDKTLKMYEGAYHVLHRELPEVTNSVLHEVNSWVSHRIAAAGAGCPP
# protocol.notes: In vitro competitive activity-based protein profiling (mouse), MAGL
# Format: biochemical
# condition.set: mouse brain membrane fraction or cell lysates, 30 min preincubation at 37° C, FP-Rh probe

O=C(OC(C(F)(F)F)C(F)(F)F)N1CCN(Cc2ccc(C(F)(F)F)cc2N2CCC(CO)CC2)CC1 [Example 74]
< 100 nM
O=C(O)C1CCN(c2cc(CN3CCN(C(=O)OC(C(F)(F)F)C(F)(F)F)CC3)cc(C(F)(F)F)c2)CC1 [Example 94]
100 to 1000 nM
O=C(OC(C(F)(F)F)C(F)(F)F)N1CCN(Cc2ccc(N3CC4CCC(C3)O4)cc2OC(F)(F)F)CC1 [Example 28]
100 to 1000 nM
O=C(OC(C(F)(F)F)C(F)(F)F)N1CCN(Cc2cc(N3CCCC3CO)cc(C(F)(F)F)c2)CC1 (stereo not shown) [Example 88]
100 to 1000 nM
O=C(OC(C(F)(F)F)C(F)(F)F)N1CCN(Cc2cccc(Cl)c2N2CC3CCC(C2)O3)CC1 [Example 57]
< 100 nM
O=C(OC(C(F)(F)F)C(F)(F)F)N1CCN(Cc2ccc(Cl)cc2N2CC[C@@H](N3CCCC3=O)C2)CC1 [Example 41]
< 100 nM

query: Item Cc1c(CN2CCN(C(=O)OC(C(F)(F)F)C(F)(F)F)CC2)cccc1CN1CCCC[C@@H]1C [Example 20] has what recorded IC50?
result: 100 to 1000 nM

---

Record form. Attribute: IC50. Fill in for each entry.
# test.target: ABHD6 (Mus musculus)
# Construct: Proteomes (mouse brain membrane fraction or cell lysates); from tissue; host or cells: mouse brain membrane fraction (or unspecified cell lysates)
# Sequence (Q8R2Y0 whole entry): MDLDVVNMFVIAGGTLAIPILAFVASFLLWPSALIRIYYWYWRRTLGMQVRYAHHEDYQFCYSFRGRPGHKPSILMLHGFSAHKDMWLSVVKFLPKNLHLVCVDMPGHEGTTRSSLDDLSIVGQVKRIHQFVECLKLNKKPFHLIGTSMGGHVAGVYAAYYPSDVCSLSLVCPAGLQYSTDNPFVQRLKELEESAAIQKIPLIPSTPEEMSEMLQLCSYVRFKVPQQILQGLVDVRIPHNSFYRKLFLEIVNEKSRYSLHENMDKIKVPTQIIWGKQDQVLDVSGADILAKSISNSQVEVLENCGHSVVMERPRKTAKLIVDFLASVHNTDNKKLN
# protocol.notes: In vitro competitive activity-based protein profiling (mouse), ABHD6
# Type: biochemical
# condition.set: mouse brain membrane fraction or cell lysates, 30 min preincubation at 37° C, FP-Rh probe

COc1c(CN2CCN(C(C)=O)CC2)cccc1CN1CCN(C(=O)OC(C(F)(F)F)C(F)(F)F)CC1
100 to 1000 nM
Cc1c(CN2CCN(C(=O)OC(C(F)(F)F)C(F)(F)F)CC2)cccc1CN1CCN(S(C)(=O)=O)CC1
< 100 nM
COC(=O)c1cc(CN2CCN(C(=O)OC(C(F)(F)F)C(F)(F)F)CC2)ccc1N1CCOCC1
100 to 1000 nM
O=C(OC(C(F)(F)F)C(F)(F)F)N1CCN(Cc2cccc(Cl)c2N2CC3CCC(C2)O3)CC1
> 1000 nM
Cc1c(CN2CCN(C(=O)OC(C(F)(F)F)C(F)(F)F)CC2)cccc1CN1CCC(F)(F)CC1
100 to 1000 nM
O=C(OC(C(F)(F)F)C(F)(F)F)N1CCN(Cc2ccc(C(F)(F)F)c(N3CC4CCC(C3)O4)c2)CC1
100 to 1000 nM

Okay, here is my list. What is IC50 for each of these?
1. CS(=O)(=O)N[C@@H]1CCN(c2cc(C(F)(F)F)ccc2CN2CCN(C(=O)OC(C(F)(F)F)C(F)(F)F)CC2)C1
2. O=C(OC(C(F)(F)F)C(F)(F)F)N1CCN(Cc2ccc(Cl)cc2N2CC[C@H](N3CCCC3=O)C2)CC1
3. O=C(O)C1CCN(c2cc(C(F)(F)F)ccc2CN2CCN(C(=O)OC(C(F)(F)F)C(F)(F)F)CC2)C1 (stereo not drawn)
4. CCOC(=O)C1CCCN1c1cc(CN2CCN(C(=O)OC(C(F)(F)F)C(F)(F)F)CC2)ccc1C(F)(F)F (stereo not drawn)
5. O=C(OC(C(F)(F)F)C(F)(F)F)N1CCN(Cc2ccc(Cl)cc2N2CC3CN(C4CC4)CC3C2)CC1 (stereo not drawn)
6. O=C(OC(C(F)(F)F)C(F)(F)F)N1CCN(Cc2ccc(Cl)cc2N2CC[C@H](N3CCCS3(=O)=O)C2)CC1
7. CC(=O)NC1CCN(Cc2cccc(CN3CCN(C(=O)OC(C(F)(F)F)C(F)(F)F)CC3)c2C)CC1
8. CS(=O)(=O)N[C@H]1CCN(c2cc(C(F)(F)F)ccc2CN2CCN(C(=O)OC(C(F)(F)F)C(F)(F)F)CC2)C1

result:
1: > 1000 nM; 2: 100 to 1000 nM; 3: 100 to 1000 nM; 4: 100 to 1000 nM; 5: > 1000 nM; 6: > 1000 nM; 7: 100 to 1000 nM; 8: > 1000 nM

query: Item O=C(OC(C(F)(F)F)C(F)(F)F)N1CCN(Cc2ccc(C(F)(F)F)cc2N2CC3CN(C4CC4)CC3C2)CC1 (stereo not drawn) has what recorded IC50?
result: > 1000 nM

---

# test.target: FAAH (Mus musculus, UniProt O08914)
# Construct: Proteomes (mouse brain membrane fraction or cell lysates); from tissue; host or cells: mouse brain membrane fraction (or unspecified cell lysates)
# Sequence (O08914 whole entry): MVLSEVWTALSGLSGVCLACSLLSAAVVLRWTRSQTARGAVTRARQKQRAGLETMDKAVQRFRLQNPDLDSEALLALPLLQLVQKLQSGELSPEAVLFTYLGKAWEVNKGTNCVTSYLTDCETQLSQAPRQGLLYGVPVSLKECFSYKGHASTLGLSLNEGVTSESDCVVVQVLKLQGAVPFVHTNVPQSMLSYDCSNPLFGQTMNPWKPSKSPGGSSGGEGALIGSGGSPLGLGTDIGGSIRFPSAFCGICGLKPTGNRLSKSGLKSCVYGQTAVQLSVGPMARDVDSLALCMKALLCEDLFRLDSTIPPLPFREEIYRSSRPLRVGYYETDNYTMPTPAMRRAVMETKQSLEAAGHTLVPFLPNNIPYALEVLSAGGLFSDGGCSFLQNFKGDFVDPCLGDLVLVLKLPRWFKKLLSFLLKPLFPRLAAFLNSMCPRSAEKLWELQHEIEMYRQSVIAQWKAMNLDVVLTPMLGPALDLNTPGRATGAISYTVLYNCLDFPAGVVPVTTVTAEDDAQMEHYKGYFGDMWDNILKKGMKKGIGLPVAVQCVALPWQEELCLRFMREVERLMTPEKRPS
# protocol.notes: In vitro competitive activity-based protein profiling (mouse), FAAH
# Type: biochemical
# condition.set: 1 μM, mouse proteome, in vitro
reported.property: inhibition at 1 µM

The cases that follow already have their inhibition at 1 µM on record.
O=C(OC(C(F)(F)F)C(F)(F)F)N1CCN(Cc2ccc(C(F)(F)F)cc2N2C3CCC2COC3)CC1 [Example 58]
< 25%
Cc1c(CN2CCCC2)cccc1CN1CCN(C(=O)OC(C(F)(F)F)C(F)(F)F)CC1 [Example 13]
< 25%

Okay, here is my list. What is inhibition at 1 µM for each of these?
1. Cc1c(CN2CCC(F)CC2)cccc1CN1CCN(C(=O)OC(C(F)(F)F)C(F)(F)F)CC1 [Example 15]
2. COc1c(CN2CCC(F)CC2)cccc1CN1CCN(C(=O)OC(C(F)(F)F)C(F)(F)F)CC1 [Example 9]
3. CS(=O)(=O)N[C@@H]1CCN(c2cccc(C(F)(F)F)c2CN2CCN(C(=O)OC(C(F)(F)F)C(F)(F)F)CC2)C1 [Example 47]
4. Cc1c(CN2CCC(NS(C)(=O)=O)CC2)cccc1CN1CCN(C(=O)OC(C(F)(F)F)C(F)(F)F)CC1 [Example 10]
5. O=C(OC(C(F)(F)F)C(F)(F)F)N1CCN(Cc2ccc(N3CC4CCC(C3)O4)cc2OC(F)(F)F)CC1 [Example 28]

result:
1: < 25%; 2: < 25%; 3: < 25%; 4: < 25%; 5: < 25%

Okay, here is my list. What is inhibition at 1 µM for each of these?
1. O=C(OC(C(F)(F)F)C(F)(F)F)N1CCN(Cc2ccc(C(F)(F)F)c(N3CCC(CO)C3)c2)CC1 (stereo not drawn) [Example 81]
2. CCOC(=O)C1CCCN1c1cc(CN2CCN(C(=O)OC(C(F)(F)F)C(F)(F)F)CC2)ccc1C(F)(F)F (stereo not drawn) [Example 78]

result:
1. < 25%
2. < 25%

Okay, here is my list. What is inhibition at 1 µM for each of these?
1. O=C(OC(C(F)(F)F)C(F)(F)F)N1CCN(Cc2cccc(OC(F)(F)F)c2N2CC3CCC(C2)O3)CC1 [Example 31]
2. O=C(OC(C(F)(F)F)C(F)(F)F)N1CCN(Cc2ccc(C(F)(F)F)cc2N2CC3CN(C4CC4)CC3C2)CC1 (stereo not drawn) [Example 65]

result:
1: < 25%; 2: < 25%

Okay, here is my list. What is inhibition at 1 µM for each of these?
1. NC(=O)C1CCN(c2cc(Cl)ccc2CN2CCN(C(=O)OC(C(F)(F)F)C(F)(F)F)CC2)CC1 [Example 33]
2. CC(=O)N1CCN(Cc2cccc(CN3CCN(C(=O)OC(C(F)(F)F)C(F)(F)F)CC3)c2C)CC1 [Example 14]
3. Cc1cc(C)n(C2CN(c3cc(Cl)ccc3CN3CCN(C(=O)OC(C(F)(F)F)C(F)(F)F)CC3)C2)n1 [Example 38]
4. O=C(OC(C(F)(F)F)C(F)(F)F)N1CCN(Cc2ccc(C(F)(F)F)c(N3CCCC3CO)c2)CC1 (stereo not drawn) [Example 79]

result:
["< 25%", "< 25%", "< 25%", "< 25%"]
